target: hTRPC5 (Homo sapiens, UniProt Q9UL62); construct: expressed in transfected cells; host or cells: HEK-293; experiment: TRPC5 inhibitory activity assay (FLIPR calcium fluorescence, Englerin A stimulation); format: cell-based; conditions: Table 1, TRPC5 channels, HEK-293 cells expressing hTRPC5; read-out: FLIPR IC50
Sequence (Q9UL62 whole entry): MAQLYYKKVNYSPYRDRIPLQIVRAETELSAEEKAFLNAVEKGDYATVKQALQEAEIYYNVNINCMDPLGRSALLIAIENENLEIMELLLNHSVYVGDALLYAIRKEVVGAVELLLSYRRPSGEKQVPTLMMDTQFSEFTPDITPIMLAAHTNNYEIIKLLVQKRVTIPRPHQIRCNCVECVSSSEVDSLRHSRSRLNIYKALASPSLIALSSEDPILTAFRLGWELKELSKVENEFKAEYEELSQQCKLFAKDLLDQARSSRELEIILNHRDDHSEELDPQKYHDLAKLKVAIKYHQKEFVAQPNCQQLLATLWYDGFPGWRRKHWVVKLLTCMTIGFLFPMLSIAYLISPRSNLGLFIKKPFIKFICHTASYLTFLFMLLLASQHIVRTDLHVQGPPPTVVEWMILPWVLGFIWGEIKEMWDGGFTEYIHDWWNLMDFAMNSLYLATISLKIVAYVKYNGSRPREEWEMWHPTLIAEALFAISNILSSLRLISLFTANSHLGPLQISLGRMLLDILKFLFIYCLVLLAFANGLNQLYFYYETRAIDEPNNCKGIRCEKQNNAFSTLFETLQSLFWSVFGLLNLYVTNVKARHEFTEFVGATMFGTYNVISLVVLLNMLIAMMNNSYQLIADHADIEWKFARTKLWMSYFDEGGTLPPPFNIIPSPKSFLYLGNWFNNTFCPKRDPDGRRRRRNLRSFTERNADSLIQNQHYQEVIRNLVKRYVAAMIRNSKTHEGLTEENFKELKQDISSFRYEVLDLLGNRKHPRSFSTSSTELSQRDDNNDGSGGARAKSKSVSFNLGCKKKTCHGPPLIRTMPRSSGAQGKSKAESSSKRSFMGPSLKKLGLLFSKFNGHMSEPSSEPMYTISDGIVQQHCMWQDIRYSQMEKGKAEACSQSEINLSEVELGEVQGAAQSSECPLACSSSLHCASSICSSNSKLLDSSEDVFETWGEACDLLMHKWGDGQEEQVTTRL
Measured attribute: log10 of IC50 (log10 of the value in µM)
Response schema: value (number) is log10 of IC50 in units of µM.

| Molecule | Measured on | log10 of IC50 |
| --- | --- | --- |
| Cn1c(=O)n(CCCO)c(=O)c2c1nc(C1CCC(C(F)(F)F)CC1)n2Cc1ccc(Cl)cc1 (stereo not shown) [Example E12] | hTRPC5 (Homo sapiens, UniProt Q9UL62) | -1.87 |
| C/C(=N\OC(C)(C)C)c1nc2c(c(=O)n(CCCO)c(=O)n2C)n1Cc1ccc(Cl)cc1 [Example E27] | hTRPC5 (Homo sapiens, UniProt Q9UL62) | -1.19 |
| Cn1c(=O)n(CCCO)c(=O)c2c1nc(C1(F)CCC(C(F)(F)F)CC1)n2Cc1ccc(C#N)cc1 (stereo not shown) [Example E73] | hTRPC5 (Homo sapiens, UniProt Q9UL62) | -2.73 |
| Cn1c(=O)n(CCCO)c(=O)c2c1nc(C1(F)CCC(F)(F)CC1)n2Cc1ccc(F)c(Cl)c1 [Example E68] | hTRPC5 (Homo sapiens, UniProt Q9UL62) | -3.24 |

Quick batch: log10 of IC50 for everything below.
1. COC1CCC(F)(c2nc3c(c(=O)n(CCCO)c(=O)n3C)n2Cc2ccc(Cl)cc2)CC1 (stereo not shown) [Example E32]
2. CCn1c(=O)n(CCCO)c(=O)c2c1nc(C1=CCC(C(F)(F)F)CC1)n2Cc1ccc(Cl)c(F)c1 (stereo not shown) [Example E57]
3. Cn1c(=O)n(CCCO)c(=O)c2c1nc(C1(F)CCC(C(F)(F)F)CC1)n2Cc1ccc(F)cc1Cl (stereo not shown) [Example E67]

Out:
1. -1.99
2. -1.28
3. -1.72
